- tested.system: T1, Recombinant Human TNF-α/TNFSF1A (human, UniProt P01375 77-233)
- T1 construct: also called hTNF-α; huTNFα
- T1 sequence (P01375 77-233 limits assumed): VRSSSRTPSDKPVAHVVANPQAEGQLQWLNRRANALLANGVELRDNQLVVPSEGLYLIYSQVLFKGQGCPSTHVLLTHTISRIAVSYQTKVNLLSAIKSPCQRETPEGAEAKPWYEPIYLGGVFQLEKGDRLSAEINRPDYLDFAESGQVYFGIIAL
- test.details: SPR (BIACORE), antibody captured, TNFα in solution
property.measured: koff (s⁻¹)
Write it as a number; the unit s⁻¹ goes unstated.

{"binder": "AB363 (antibody, V domains shown, Full-length humanized antibody made in HEK 293-6E; also called hMAK199VH.1b/hMAK199VL.1) VH: EVQLVQSGSELKKPGASVKVSCKASGYTFTNYGMNWVRQAPGQGLEWMGWINTYTGEPTYADDFKGRFVFSLDTSVSTAYLQISSLKAEDTAVYFCARKFLTTVVVTDYAMDYWGQGTTVTVSS VL: DIQMTQSPSSLSASVGDRVTITCRASQDISNYLNWYQQKPGKAPKLLIYYTSRLQSGVPSRFSGSGSGTDFTLTISSLQPEDFATYYCQQGNTLPPTFGQGTKLEIK", "unit.spec": "s⁻¹", "measured.value": 0.0012}
{"binder": "AB367 (antibody, V domains shown, Full-length humanized antibody made in HEK 293-6E; also called hMAK199VH.1b/hMAK199VL.2a) VH: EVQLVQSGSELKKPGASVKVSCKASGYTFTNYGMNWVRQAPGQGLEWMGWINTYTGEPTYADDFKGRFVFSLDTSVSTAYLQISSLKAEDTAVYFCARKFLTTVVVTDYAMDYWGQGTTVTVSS VL: DIVMTQSPAFLSVTPGEKVTITCRASQDISNYLNWYQQKPDQTVKLLIYYTSRLQSGVPSRFSGSGSGTDYTFTISSLEAEDAATYFCQQGNTLPPTFGQGTKLEIK", "unit.spec": "s⁻¹", "measured.value": 0.001}

Supply koff value. Item: AB357 (antibody, V domains shown, Full-length humanized antibody made in HEK 293-6E; also called hMAK199VH.1a/hMAK199VL.1) VH: EIQLVQSGSELKKPGASVKVSCKASGYTFTNYGMNWVRQAPGQGLEWMGWINTYTGEPTYADDFKGRFVFSLDTSVSTAYLQISSLKAEDTAVYFCARKFLTTVVVTDYAMDYWGQGTTVTVSS VL: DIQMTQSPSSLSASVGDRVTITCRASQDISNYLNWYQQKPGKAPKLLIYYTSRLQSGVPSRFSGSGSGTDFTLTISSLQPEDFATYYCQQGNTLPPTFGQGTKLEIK
0.0013

Data provenance: patent US20150111251A1
